test system: T47D#11 tumors; type: in vivo, CB17 SCID mice; settings: T47D#11 tumors; SCID mice; multi-dose 15 mg/kg; Day 66
endpoint: Final Tumor size mm^3 (mean ± SEM) (mm^3)
The figure you give is taken to be in mm^3; do not add the unit.

{"molecule": "H1H6782P-DM1: anti-PRLR antibody H1H6782P conjugated to DM1 through an SMCC linker (conjugate) VH: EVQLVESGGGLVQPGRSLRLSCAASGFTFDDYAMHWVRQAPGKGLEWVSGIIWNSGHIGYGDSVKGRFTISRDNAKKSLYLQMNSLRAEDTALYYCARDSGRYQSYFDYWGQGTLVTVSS VL: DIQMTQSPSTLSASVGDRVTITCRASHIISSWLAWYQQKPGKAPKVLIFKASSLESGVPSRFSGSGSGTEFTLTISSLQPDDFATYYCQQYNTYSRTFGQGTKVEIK", "Final Tumor size mm^3 (mean ± SEM) (mm^3)": 124}
{"molecule": "H1H6958N2: anti-PRLR antibody, receptor blocking, human IgG1 Fc form of H2M6958N2 of Table 1; HCVR/LCVR SEQ ID NOs 290/298 (antibody, V domains shown) VH: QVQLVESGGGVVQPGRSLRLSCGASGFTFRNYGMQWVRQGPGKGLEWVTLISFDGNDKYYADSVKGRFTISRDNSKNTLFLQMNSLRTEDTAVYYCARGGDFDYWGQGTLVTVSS VL: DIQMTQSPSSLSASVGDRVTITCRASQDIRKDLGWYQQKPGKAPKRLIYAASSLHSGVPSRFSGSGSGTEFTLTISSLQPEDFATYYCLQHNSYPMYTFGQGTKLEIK", "Final Tumor size mm^3 (mean ± SEM) (mm^3)": 1259}
{"molecule": "H1H6765P-DM1: anti-PRLR antibody H1H6765P conjugated to DM1 through an SMCC linker (conjugate) VH: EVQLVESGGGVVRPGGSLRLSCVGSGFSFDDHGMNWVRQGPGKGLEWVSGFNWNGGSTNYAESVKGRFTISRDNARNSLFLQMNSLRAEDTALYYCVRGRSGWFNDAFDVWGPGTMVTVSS VL: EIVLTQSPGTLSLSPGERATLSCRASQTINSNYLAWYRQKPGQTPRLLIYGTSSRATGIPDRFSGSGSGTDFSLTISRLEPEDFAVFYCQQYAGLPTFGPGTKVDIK", "Final Tumor size mm^3 (mean ± SEM) (mm^3)": 69}
{"molecule": "H1H6765P: fully human anti-PRLR antibody, human IgG1 Fc; HCVR/LCVR SEQ ID NOs 18/26 (antibody, V domains shown) VH: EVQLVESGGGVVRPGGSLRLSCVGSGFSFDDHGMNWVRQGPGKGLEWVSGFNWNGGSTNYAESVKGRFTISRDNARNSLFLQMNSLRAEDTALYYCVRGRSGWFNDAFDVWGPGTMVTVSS VL: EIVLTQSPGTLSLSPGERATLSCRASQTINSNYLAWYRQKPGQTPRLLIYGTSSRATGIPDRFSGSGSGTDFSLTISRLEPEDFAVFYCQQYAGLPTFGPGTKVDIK", "Final Tumor size mm^3 (mean ± SEM) (mm^3)": 1278}
{"molecule": "H1H6782P: fully human anti-PRLR antibody, non-blocking; HCVR/LCVR SEQ ID NOs 66/74 (antibody, V domains shown) VH: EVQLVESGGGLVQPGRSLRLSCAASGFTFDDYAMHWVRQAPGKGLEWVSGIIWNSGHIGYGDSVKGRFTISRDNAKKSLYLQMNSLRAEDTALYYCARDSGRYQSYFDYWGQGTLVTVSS VL: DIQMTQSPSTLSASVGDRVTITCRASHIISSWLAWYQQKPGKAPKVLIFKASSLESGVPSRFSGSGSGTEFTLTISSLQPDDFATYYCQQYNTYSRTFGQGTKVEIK", "Final Tumor size mm^3 (mean ± SEM) (mm^3)": 1537}

Let us examine a further case.
Determine from records and report Final Tumor size mm^3 (mean ± SEM) for H1H6958N2-DM1: anti-PRLR antibody H1H6958N2 conjugated to the maytansinoid DM1 through an SMCC linker (conjugate) VH: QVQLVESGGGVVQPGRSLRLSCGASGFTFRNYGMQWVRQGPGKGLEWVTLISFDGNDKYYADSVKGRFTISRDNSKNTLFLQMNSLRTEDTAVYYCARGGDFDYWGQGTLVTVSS VL: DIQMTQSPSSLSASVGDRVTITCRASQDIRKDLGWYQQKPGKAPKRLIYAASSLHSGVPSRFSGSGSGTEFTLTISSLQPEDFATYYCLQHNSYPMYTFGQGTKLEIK
44
